Hey, just so you know, these numbers are from paper PMC5867678.

- experimental-details: Permeability assay in MDCK-MDR1 cells
- condition-details: dog

{"columns": ["smiles-notation", "Papp A→B at […], 2 µM [×10⁻⁶ cm/s]"],
 "data": [
  ["O=[N+]([O-])c1cn2c(n1)OC[C@H](Oc1ccc(OC(F)(F)F)cc1)C2", 32.4]
]}

====

- experimental-details: Rat pharmacokinetics
- Set-up: species or system Sprague-Dawley rats
- condition-details: male, Sprague-Dawley, in vivo, po, 40 mg/kg
endpoint: AUC(0-t)

{"columns": ["compound", "value"],
 "data": [
  ["O=[N+]([O-])c1cn2c(n1)OC[C@H](Oc1ccc(OC(F)(F)F)cc1)C2 [R-6]", "80600 ng·h/mL"]
]}

====

- experimental-details: Microsomal stability, CD-1 mouse liver microsomes
- Format: in vitro ADME
- condition-details: 1 h
endpoint: remaining at 1 h, 1 μM

{"columns": ["smiles-notation", "endpoint", "value"],
 "data": [
  ["O=[N+]([O-])c1cn2c(n1)OC[C@H](Oc1ccc(C(F)(F)F)cn1)C2", "remaining at 1 h, 1 μM", "90 to 92%"],
  ["O=[N+]([O-])c1cn2c(n1)OC[C@H](OCc1ccc(-c3ccc(F)cc3F)cn1)C2", "remaining at 1 h, 1 μM", "57 to 59%"]
]}

====

Property: remaining at 1 h, 1 μM; scope: individual molecules
- experimental-details: Microsomal stability, human liver microsomes
- Format: in vitro ADME
- condition-details: pooled human liver microsomes, 1 h

{"columns": ["molecule", "remaining at 1 h, 1 μM"],
 "data": [
  ["O=[N+]([O-])c1cn2c(n1)OC[C@H](OCc1ccc(-c3ccc(F)cc3F)cn1)C2 [R-96]", "57 to 59%"],
  ["O=[N+]([O-])c1cn2c(n1)OC[C@H](Oc1ccc(C(F)(F)F)cn1)C2 [R-136]", "90 to 92%"]
]}

====

- experimental-details: Mouse pharmacokinetics
- condition-details: Swiss albino, in vivo, iv, 1 mg/kg
endpoint: half-life (h)

{"columns": ["compound", "value"],
 "data": [
  ["O=[N+]([O-])c1cn2c(n1)OCC(COc1ccc(OC(F)(F)F)cc1)C2 (stereo not shown) [compound 24]", 2]
]}

====

- experimental-details: Mouse pharmacokinetics
- condition-details: female, BALB/c, in vivo, po, 40 mg/kg
endpoint: Cmax (ng/mL)

{"columns": ["smiles-notation", "value"],
 "data": [
  ["O=[N+]([O-])c1cn2c(n1)OC[C@H](OCc1ccc(-c3ccc(OC(F)(F)F)cc3)cn1)C2", 16000],
  ["O=[N+]([O-])c1cn2c(n1)OC[C@H](OCc1ccc(-c3ccc(OC(F)(F)F)cc3F)cn1)C2", 32000],
  ["O=[N+]([O-])c1cn2c(n1)OC[C@H](Oc1ccc(OC(F)(F)F)cc1)C2", 21000]
]}

====

- experimental-details: Mouse pharmacokinetics
- condition-details: male, Swiss albino, in vivo, po

{"columns": ["molecule", "bioavailability"],
 "data": [
  ["O=[N+]([O-])c1cn2c(n1)OCC(COc1ccc(-c3ccc(OC(F)(F)F)cc3)nc1)C2 (centres unmarked)", "11 to 15%"],
  ["O=[N+]([O-])c1cn2c(n1)OCC(COc1ccc(-c3ccc(F)cc3)nc1)C2 (centres unmarked)", "11 to 15%"]
]}

====

- experimental-details: Rat pharmacokinetics
- Parameters: species or system Sprague-Dawley rats
- condition-details: male, Sprague-Dawley, in vivo, po, 40 mg/kg

{"columns": ["smiles-notation", "unit-annotation", "Cmax"],
 "data": [
  ["O=[N+]([O-])c1cn2c(n1)OC[C@H](Oc1ccc(OC(F)(F)F)cc1)C2", "ng/mL", 5200]
]}

====

- experimental-details: Mouse pharmacokinetics
- condition-details: female, BALB/c, in vivo, po, 40 mg/kg
Property: AUC(0-t); scope: individual compounds
endpoint: AUC(0-t) (µg·h/mL)

{"columns": ["smiles-notation", "value"],
 "data": [
  ["O=[N+]([O-])c1cn2c(n1)OC[C@H](Oc1ccc(OC(F)(F)F)cc1)C2", 272],
  ["O=[N+]([O-])c1cn2c(n1)OC[C@H](OCc1ccc(-c3ccc(OC(F)(F)F)cc3)cn1)C2", 211],
  ["O=[N+]([O-])c1cn2c(n1)OC[C@H](OCc1ccc(-c3ccc(OC(F)(F)F)cc3F)cn1)C2", 265]
]}
